# key: entry, value: TGI
- Test system: OVCAR-8 ovarian
- test_method_notes: NCI tumour cell line growth inhibition, 48 h

                                   compound  readout_name  experimental_value
0  O=C1NC(c2cccc3ccccc23)Nc2ccc(O)cc21 (stereo unspecified)           TGI              111 µM
1            Nc1ccc(N)c2c1C(=O)c1ccccc1C2=O           TGI            > 100 µM
2  Cc1ccc(-c2c3c(nn2-c2ccc(S(=O)(=O)NC(=O)Nc4ccccc4)cc2)-c2ccccc2C3)cc1           TGI             52.9 µM

**Query** Find TGI for COc1cc(/C=C2/SC(c3ccccc3)N(c3cc(Cl)ccc3Cl)C2=O)cc(OC)c1OC (stereo unspecified) on OVCAR-8 ovarian and write it down.
**Result** > 100 µM

**Query** Enter recorded TGI with OVCAR-8 ovarian for `CNC(=O)CNC(=O)CCC(=O)OC` here.
**Result** > 100 µM

**Query** Write TGI of `COc1cc(C(=O)/C=C/c2c(C)n([O-])c3ccc(C(F)(F)F)cc3[n+]2=O)cc(OC)c1OC` ; system used: OVCAR-8 ovarian
**Result** > 31.1 µM

**Query** Write down measured TGI (OVCAR-8 ovarian) for this compound. CC1c2ccccc2Cn2cc3c(c21)C(=O)c1cccc(OP(=O)(O)OCc2ccccc2)c1C3=O (stereo unspecified)
**Result** > 100 µM

**Query** Report TGI under test system OVCAR-8 ovarian for O=C(O)C(C(C(=O)O)P(=O)(O)O)P(=O)(O)O (stereo unspecified) .
**Result** > 100 µM

**Query** Report measured TGI on OVCAR-8 ovarian; entry: O=C(OC1C=C=CS(=O)(=O)CC#C/C=C\1)c1cnc2ccccc2n1 (stereo unspecified)
**Result** > 100 µM

**Query** State TGI (OVCAR-8 ovarian) of CC(C1CCCC1=O)C1CCCC1=O (stereo unspecified) .
**Result** > 100 µM

**Query** Please respond with reported TGI (system OVCAR-8 ovarian) for `O=C(O)c1ccc(C=C2Sc3ccccc3S2)cc1` .
**Result** > 100 µM

---

- System: OVCAR-5 ovarian
- test_method_notes: NCI tumour cell line growth inhibition, 48 h
readout_name: TGI

Example cases with answers are listed next.
molecule	TGI
Cc1cn(C(=O)NC23CC4CC(CC(C4)C2)C3)c(=O)[nH]c1=O	> 100 µM
O=C(C=P(c1ccccc1)(c1ccccc1)c1ccccc1)CC(=S)CC(=O)C=P(c1ccccc1)(c1ccccc1)c1ccccc1	80 µM
Cc1c(C)c(S(=O)(=O)N(CCCCCCN)OCCCN)c(C)c2c1OC(C)(C)CC2	> 51.4 µM
O=C(Nc1ccc(OCc2nnc(-c3ccc(Cl)cc3)o2)c(F)c1)Nc1ccc(Cl)c(Cl)c1	> 100 µM
C=C(CN1CCc2ccccc2C1)c1ccc(CCC(=O)Nc2ccccc2N)cc1	> 100 µM

**Query** Give TGI for the following molecule: O=S(CCc1ccccc1)Nc1ccccc1 (stereo not given)
**Result** > 100 µM

**Query** State its TGI: `CCCOC(=O)c1ccc2c(c1)[N+](=O)C(C(=O)c1ccccc1)=C(C(F)(F)F)[N+]2=O`
**Result** 3.31 µM

**Query** Supply measured TGI of O=C(O)CCC(N=C(C(=NC(CCC(=O)O)C(=O)O)c1ccccc1)c1ccccc1)C(=O)O (stereo not given) in your reply.
**Result** > 100 µM

**Query** Quick one: give measured TGI for CC1c2ccccc2Cn2cc3c(c21)C(=O)c1cccc(OP(=O)(O)OCc2ccccc2)c1C3=O (stereo not given)
**Result** > 100 µM

**Query** For the molecule C=CCSSC1N=CNc2nc[nH]c21 (stereo not given) , give its measured TGI value.
**Result** > 50.6 µM
